assay: Metabolic stability in rat liver microsomes assessed as half life
Type: ADME, Microsome
readout: half-life (min)
A number alone suffices; assume min.

Dear colleague, I am looking for the recorded half-life of the following molecule: `COc1cccc(CNCc2c(C(=O)O)n(Cc3ccc(C)cc3)c3cc(C(C)C)ccc23)c1`
9.25

----------
System: Bel7402/5-FU
assay: Antiproliferative activity against human BEL-7402/5-FU cells overexpressing 14-3-3 eta assessed as reduction in cell viability incubated for 72 hrs by MTT assay
Assay type: functional, cell-based
readout: IC50 (µM)
A number alone suffices; assume µM.

Dear colleague, I am looking for the recorded IC50 of the following compound: `COc1cccc(CNCc2c(C(=O)O)n(Cc3ccccc3)c3cc(C(C)C)ccc23)c1`
5.92

Dear colleague, I am looking for the recorded IC50 of the following compound: `COc1ccc(Cn2c(C(=O)O)c(CNCc3cccc(O)c3)c3ccc(C(C)C)cc32)cc1`
15.2

Dear colleague, I am looking for the recorded IC50 of the following compound: `COc1cccc(CNCc2c(C(=O)O)n(Cc3ccc(C)cc3)c3cc(C(C)C)ccc23)c1`
4.55

Dear colleague, I am looking for the recorded IC50 of the following compound: `COc1cccc(CNCc2c(C(=O)O)n(Cc3ccccc3F)c3cc(C(C)C)ccc23)c1`
5.21

Dear colleague, I am looking for the recorded IC50 of the following compound: `COc1cccc(CNCc2c(C(=O)O)n(Cc3ccc(C)cc3)c3cc(C)ccc23)c1`
7.31

Dear colleague, I am looking for the recorded IC50 of the following compound: `CNC(=O)c1cc(Oc2ccc(NC(=O)Nc3ccc(Cl)c(C(F)(F)F)c3)cc2)ccn1`
13.3

Dear colleague, I am looking for the recorded IC50 of the following compound: `COc1cccc(CNCc2c(C(=O)O)n(Cc3ccc(C)cc3)c3ccccc23)c1`
9.33

Dear colleague, I am looking for the recorded IC50 of the following compound: `COc1cccc(CNCc2c(C(=O)O)n(Cc3ccccc3)c3cc(C)ccc23)c1`
12.1

Dear colleague, I am looking for the recorded IC50 of the following compound: `COc1ccc(Cn2c(C(=O)O)c(CN(C)Cc3cccc(OC)c3)c3ccc(C)cc32)cc1`
7.47

Dear colleague, I am looking for the recorded IC50 of the following compound: `COc1ccc(Cn2c(C(=O)O)c(CNCc3ccc(O)c(OC)c3)c3ccc(C(C)C)cc32)cc1`
7.9
